These data points were gathered from PubChem BioAssay (NCI).

Assay: NCI Yeast Anticancer Drug Screen. Data for the rad50 strain (AID 155)
Conditions: S. cerevisiae rad50 strain growth inhibition; at 50.0 µM (retest, dose inferred, filed as 5.0)
About 79,000 compounds went through this panel and 15% of them were active in at least one assay; those are over-represented in the sample as a whole. Calls of active or inactive are those of the source. No stated cut-off is given here; in the data, active means growth inhibition above about 70%; inactive means the rest.
Outcomes: active, inactive

compound: O=[As](O)(O)CCc1ccccc1
assigned_label: inactive
--
compound: O=c1oc2cc(O)ccc2c(O)c1C(c1ccc(/C=C/c2ccccc2)cc1)c1c(O)c2ccc(O)cc2oc1=O
assigned_label: active
--
compound: O=C(CF)CCl
assigned_label: active
--
compound: O=C(CC(=O)c1ccccc1)c1ccccc1.O=C(CC(=O)c1ccccc1)c1ccccc1.O=C(CC(=O)c1ccccc1)c1ccccc1.[Al]
assigned_label: inactive
--
compound: CCCC1CC[N-]CC1.CCCC1CC[N-]CC1.N#C[S-].N#C[S-].[Cd]
assigned_label: active
--
compound: O=P1(N2CCOCC2)OC(c2ccccc2)=CCN1c1ccccc1 (configuration not stated)
assigned_label: inactive
--
compound: CCOP(=O)(OCC)/C(C#N)=C/c1ccc(Br)cc1
assigned_label: active
--
compound: O=C1C=CC(=O)C(Cl)=C1
assigned_label: active
--
compound: Sc1nc2ccccc2s1.Sc1nc2ccccc2s1.Sc1nc2ccccc2s1.Sc1nc2ccccc2s1.[Cl][Rh][Cl]
assigned_label: active
--
compound: Cc1cc(N(CCCl)CCCl)ccc1CN1CCCN(Cc2ccc(N(CCCl)CCCl)cc2C)C1c1ccc(N(CCCl)CCCl)cc1
assigned_label: active
--
compound: Cc1cc(CCN)c(C)c2c1oc1ccccc12
assigned_label: active
--
compound: CCC[CH2][Sn]1([CH2]CCC)[O]CC(C)[O]1 (configuration not stated)
assigned_label: active
--
compound: N#CC(C#N)=Cc1c(O)ccc2ccccc12
assigned_label: active
--
compound: O=c1s[se]c2ccccc12
assigned_label: active
--
compound: CCSc1nc(=[N+]2CCCC2)ss1
assigned_label: active
--
compound: CCC[CH2][Sn]1([CH2]CCC)[O]CC(COc2c(Cl)cc(Cl)cc2Cl)[O]1 (configuration not stated)
assigned_label: active
--
compound: COc1ccc(C[C@H]2NC[C@H](O)[C@H]2OC(C)=O)cc1
assigned_label: active
--
compound: CC(=O)C(CN(CC(C)C)CC(C)C)C(c1ccccc1)c1c(O)c2ccccc2oc1=O (configuration not stated)
assigned_label: inactive
--
compound: COc1ccc(Br)c(/C=C/[N+](=O)[O-])c1
assigned_label: active
--
compound: CC12C(=O)C=CCC1=CCC1C2CCC2(O)C(=O)OC3(C)C4CC5(C)C(COC16OC23C5C6=O)C(=O)O4 (configuration not stated)
assigned_label: inactive
--
compound: COc1cc(/C=C(/C)[N+](=O)[O-])c([N+](=O)[O-])cc1OC
assigned_label: active
--
compound: Nc1nc(N)c(-c2ccc(Cl)c(Cl)c2)c(COc2cccc(CNS(=O)(=O)c3ccc(S(=O)(=O)F)cc3)c2)n1
assigned_label: inactive
